B1: glmS ribozyme (parent)
chain: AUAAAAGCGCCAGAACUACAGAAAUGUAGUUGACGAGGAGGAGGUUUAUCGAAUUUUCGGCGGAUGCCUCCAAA

variants of: B1; assay: self-cleavage kobs at 40 uM GlcN6P; higher = faster cleavage; RNA array; conditions: with glucosamine-6-phosphate
Variants at the floor of the assay were thinned out.

CHANGES	self-cleavage kobs at 40 uM GlcN6P
C10G U47G C70U C71G	< 1e-05 s⁻¹
C34A C58U	< 1e-05 s⁻¹
G29U A36C A39C	< 1e-05 s⁻¹
C11U G13A	< 1e-05 s⁻¹
A42C U49A	< 1e-05 s⁻¹
C10A G29A C67G	0.000103 s⁻¹
A48U G62C C70U	< 1e-05 s⁻¹
A14G G44U U49C	< 1e-05 s⁻¹
G9C U49A	< 1e-05 s⁻¹
G13A G44A	< 1e-05 s⁻¹
C16U C67U	0.000314 s⁻¹
